# system.tested: IKZF2 (Homo sapiens, UniProt Q96SW2+Q9UKS7)
# Construct: expressed in transfected cells
# Sequence (Q9UKS7 1-500 isoform Q9UKS7-2, one chain of several): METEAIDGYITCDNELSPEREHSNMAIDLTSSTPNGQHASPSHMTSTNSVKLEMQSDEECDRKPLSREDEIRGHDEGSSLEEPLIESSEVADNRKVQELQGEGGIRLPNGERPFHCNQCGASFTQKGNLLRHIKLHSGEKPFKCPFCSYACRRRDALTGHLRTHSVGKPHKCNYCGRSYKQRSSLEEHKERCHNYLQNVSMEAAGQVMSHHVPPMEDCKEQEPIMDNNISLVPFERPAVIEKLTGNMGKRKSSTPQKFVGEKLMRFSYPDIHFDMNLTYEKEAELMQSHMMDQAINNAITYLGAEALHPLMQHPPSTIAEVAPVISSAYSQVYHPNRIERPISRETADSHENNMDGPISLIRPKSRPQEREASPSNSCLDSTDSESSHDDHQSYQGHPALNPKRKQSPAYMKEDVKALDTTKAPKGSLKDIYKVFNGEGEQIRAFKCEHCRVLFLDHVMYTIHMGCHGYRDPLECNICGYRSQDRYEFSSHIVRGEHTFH
# experimental.protocol: HiBiT protein tagging assay, in vitro IKZF2 degradation (HEK293)
# Format: cell-based
# condition.set: HEK293, HiBiT assay, HEK293, 18-24 hr incubation, normalized to DMSO control; read-out: IKZF2 Dmax (maximum degradation at the highest concentration tested)
Attribute: Dmax
Provide only the numeric value, understood in %.

Would you please look over these solved cases?
O=C1CCC(N2Cc3cc(CN[C@@H]4CCCC[C@@H]4O)ccc3C2=O)C(=O)N1 (relative stereo) [Example 49]; 70
CC1(c2ccccc2)CCC(NCc2ccc3c(c2)CN(C2CCC(=O)NC2=O)C3=O)CC1 (stereo not shown) [Example 103]; 91
O=C1CCC(N2Cc3cc(CNC4CCN(c5ccncc5)CC4)ccc3C2=O)C(=O)N1 (stereo not shown) [Example 37]; 76

C[C@@H](CO)NCc1ccc2c(c1)CN(C1CCC(=O)NC1=O)C2=O (stereo partly shown) [Example 53] yielded Dmax of 20

Per the record, O=C1CCC(N2Cc3cc(CNC4CCC5(CCOCC5)CC4)ccc3C2=O)C(=O)N1 (stereo not shown) [Example 88] has Dmax of 91

// Dmax lookup, compound = O=C1CCC(N2Cc3cc(CN[C@@H]4CCCN(CCc5ccccc5)C4)ccc3C2=O)C(=O)N1 (stereo partly shown) [Example 29] , result: 20

Dmax for COCC1(NCc2ccc3c(c2)CN(C2CCC(=O)NC2=O)C3=O)CCCCC1 (stereo not shown) [Example 154] is 47

Please fill in: Dmax reported for O=C1CCC(N2Cc3cc(CNC4Cc5ccccc5N(Cc5ccccc5)C4)ccc3C2=O)C(=O)N1 (stereo not shown) [Example 25] = 39

Summary for this compound, O=C1CCC(N2Cc3cc(CNC4CCC5(CCCCC5)CC4)ccc3C2=O)C(=O)N1 (stereo not shown) [Example 83] : Dmax is 69

Dmax measured on O=C1CCC(N2Cc3cc(CNC45CCCC(O)(C4)C5)ccc3C2=O)C(=O)N1 (stereo not shown) [Example 143] = 66

Consider O=C1CCC(N2Cc3cc(CN[C@@H]4CCC[C@H](Cc5ccccc5Cl)C4)ccc3C2=O)C(=O)N1 (stereo partly shown) [Example 137] . Its measured Dmax is 96

Looking up C[C@@H]1[C@H](NCc2ccc3c(c2)CN(C2CCC(=O)NC2=O)C3=O)CCCN1Cc1ccccc1 (stereo partly shown) [Example 106] , I see its Dmax listed as 43

// Dmax lookup, compound = O=C1CCC(N2Cc3cc(CNC4CCc5cccnc5C4)ccc3C2=O)C(=O)N1 (stereo not shown) [Example 70] , result: 67

Measured Dmax of O=C1CCC(N2Cc3cc(CN[C@H]4CC[C@@H](C(F)(F)F)CC4)ccc3C2=O)C(=O)N1 (stereo partly shown) [Example 85] : 81

Dmax for COC[C@@H]1CCCC[C@@H]1NCc1ccc2c(c1)CN(C1CCC(=O)NC1=O)C2=O (stereo partly shown) [Example 158] is 93

Reported Dmax for O=C1CCC(N2Cc3cc(CN[C@@H]4CCCN(C(=O)c5ccccc5)C4)ccc3C2=O)C(=O)N1 (stereo partly shown) [Example 24] was 62

* * *

# system.tested: IKZF2 (Homo sapiens, UniProt Q96SW2+Q9UKS7)
# Construct: expressed in transfected cells
# experimental.protocol: HiBiT protein tagging assay, in vitro IKZF2 degradation (HEK293)
# Assay type: cell-based
# condition.set: HiBiT assay, HEK293, 18-24 hr incubation, normalized to DMSO control; read-out: IKZF2 EC50
endpoint.name: log10 of DC50 (log10 of the value in nM)
Response schema: value (number) is log10 of DC50 in units of nM.

Short answer for C[C@@H](c1ccccc1)N1CCC[C@@H](NCc2ccc3c(c2)CN(C2CCC(=O)NC2=O)C3=O)C1 (stereo partly shown) : log10 of DC50 was 1.61

// log10 of DC50 value for COCC1(NCc2ccc3c(c2)CN(C2CCC(=O)NC2=O)C3=O)CCCCC1 (stereo not shown) : 2.47

For O=C1CCC(N2Cc3cc(CNC4CCC(Cc5ccccc5)C4)ccc3C2=O)C(=O)N1 (stereo not shown) the compound record lists log10 of DC50 as 2.05

// log10 of DC50 value for O=C1CCC(N2Cc3cc(CNC4CC5CNC4C5)ccc3C2=O)C(=O)N1 (stereo not shown) : 3.26

* * *

# system.tested: IKZF1 (Homo sapiens, UniProt Q13422+Q96SW2)
# Construct: expressed in transfected cells
# Sequence (Q13422 whole entry): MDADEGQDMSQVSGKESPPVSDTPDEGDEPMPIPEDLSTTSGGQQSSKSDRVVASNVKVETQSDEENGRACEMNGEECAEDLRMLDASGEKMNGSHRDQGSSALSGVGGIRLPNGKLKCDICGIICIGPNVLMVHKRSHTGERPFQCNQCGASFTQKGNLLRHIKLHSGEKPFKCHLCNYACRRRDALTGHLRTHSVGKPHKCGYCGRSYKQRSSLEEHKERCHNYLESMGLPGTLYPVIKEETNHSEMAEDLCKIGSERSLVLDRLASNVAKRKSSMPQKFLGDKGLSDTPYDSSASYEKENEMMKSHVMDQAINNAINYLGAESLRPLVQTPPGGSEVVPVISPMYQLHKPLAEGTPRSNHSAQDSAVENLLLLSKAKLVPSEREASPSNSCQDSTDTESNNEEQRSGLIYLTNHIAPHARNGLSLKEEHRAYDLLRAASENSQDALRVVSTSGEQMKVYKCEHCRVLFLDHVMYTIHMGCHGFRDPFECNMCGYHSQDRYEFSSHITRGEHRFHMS
# Sequence (Q96SW2 whole entry): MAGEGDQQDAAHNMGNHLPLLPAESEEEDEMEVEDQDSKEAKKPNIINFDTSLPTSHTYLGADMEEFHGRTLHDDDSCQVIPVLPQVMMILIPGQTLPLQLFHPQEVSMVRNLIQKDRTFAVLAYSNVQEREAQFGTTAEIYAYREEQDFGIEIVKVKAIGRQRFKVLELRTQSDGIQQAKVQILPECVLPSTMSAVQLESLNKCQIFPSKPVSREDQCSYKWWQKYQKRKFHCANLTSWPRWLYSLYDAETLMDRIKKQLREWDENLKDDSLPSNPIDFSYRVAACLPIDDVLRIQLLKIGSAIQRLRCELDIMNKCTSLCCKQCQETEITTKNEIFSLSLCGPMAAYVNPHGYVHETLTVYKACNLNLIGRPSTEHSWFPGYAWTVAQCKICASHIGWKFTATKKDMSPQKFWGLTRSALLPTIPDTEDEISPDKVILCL
# Sequence (Q16531 whole entry partner): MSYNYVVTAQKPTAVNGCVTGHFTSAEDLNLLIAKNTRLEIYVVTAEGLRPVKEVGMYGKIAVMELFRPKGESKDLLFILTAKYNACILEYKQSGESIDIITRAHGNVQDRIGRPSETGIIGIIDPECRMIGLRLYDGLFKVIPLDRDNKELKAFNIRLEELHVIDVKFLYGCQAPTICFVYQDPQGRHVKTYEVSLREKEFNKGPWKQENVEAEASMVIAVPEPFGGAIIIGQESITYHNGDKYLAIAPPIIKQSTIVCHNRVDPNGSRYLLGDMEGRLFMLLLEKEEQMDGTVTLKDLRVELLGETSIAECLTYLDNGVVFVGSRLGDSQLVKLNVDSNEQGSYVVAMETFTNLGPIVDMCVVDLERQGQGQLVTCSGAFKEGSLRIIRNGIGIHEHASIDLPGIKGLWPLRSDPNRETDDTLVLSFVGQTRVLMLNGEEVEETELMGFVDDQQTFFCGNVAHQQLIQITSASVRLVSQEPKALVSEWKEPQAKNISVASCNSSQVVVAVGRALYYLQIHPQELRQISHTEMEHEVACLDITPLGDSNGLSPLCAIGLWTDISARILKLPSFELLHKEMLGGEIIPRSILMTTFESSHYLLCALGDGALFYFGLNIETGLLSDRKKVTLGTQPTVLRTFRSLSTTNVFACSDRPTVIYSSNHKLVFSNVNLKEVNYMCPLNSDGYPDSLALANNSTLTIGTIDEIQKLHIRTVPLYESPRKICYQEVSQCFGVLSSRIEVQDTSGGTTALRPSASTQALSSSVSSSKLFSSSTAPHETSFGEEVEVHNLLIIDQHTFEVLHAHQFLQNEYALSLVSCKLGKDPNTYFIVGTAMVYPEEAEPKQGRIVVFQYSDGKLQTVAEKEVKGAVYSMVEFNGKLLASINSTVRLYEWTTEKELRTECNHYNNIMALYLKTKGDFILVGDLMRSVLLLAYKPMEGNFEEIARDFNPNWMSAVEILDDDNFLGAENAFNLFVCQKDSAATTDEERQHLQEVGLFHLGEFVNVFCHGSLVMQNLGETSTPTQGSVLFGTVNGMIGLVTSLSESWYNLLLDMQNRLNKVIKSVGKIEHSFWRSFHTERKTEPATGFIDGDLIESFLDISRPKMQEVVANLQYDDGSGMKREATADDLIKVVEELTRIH
# experimental.protocol: HiBiT protein tagging assay, in vitro IKZF1 degradation (HEK293)
# Format: cell-based
# condition.set: HEK293, 18-24 hr incubation, normalized to DMSO control, read-out: IKZF1 Dmax (maximum degradation at the highest concentration tested)
So basically, the class depends on measured Dmax, and the ranges are lower level (below 50%), middle level (50% to below 70%), upper level (70% or more)

For orientation, consider the following solved cases.
C[C@@H]1CC[C@@H](NCc2ccc3c(c2)CN(C2CCC(=O)NC2=O)C3=O)CN1Cc1ccccc1 (stereo partly shown); upper level
O=C1CCC(N2Cc3cc(CNC4CCC5(CCc6ccccc65)CC4)ccc3C2=O)C(=O)N1 (stereo not shown); middle level
O=C1CCC(N2Cc3cc(CNCc4cc5ccccc5[nH]4)ccc3C2=O)C(=O)N1 (stereo not shown); upper level
CC1CCC(C)(NCc2ccc3c(c2)CN(C2CCC(=O)NC2=O)C3=O)CC1 (stereo not shown); lower level
O=C1CCC(N2Cc3cc(CNCC4CCc5ccccc5C4)ccc3C2=O)C(=O)N1 (stereo not shown); upper level
N#C[C@H]1CC[C@@H](NCc2ccc3c(c2)CN(C2CCC(=O)NC2=O)C3=O)CC1 (stereo partly shown); upper level
O=C1CCC(N2Cc3cc(CN[C@H]4CCC[C@@H](Nc5ccccc5)C4)ccc3C2=O)C(=O)N1 (stereo partly shown); middle level
C[C@H]1CC[C@H](NCc2ccc3c(c2)CN(C2CCC(=O)NC2=O)C3=O)CC1 (stereo partly shown); lower level

Query string: # bin lookup: classify O=C1CCC(N2Cc3cc(CN[C@@H]4CCCN(c5ccccc5)C4)ccc3C2=O)C(=O)N1 (stereo partly shown) by its Dmax
Result string: lower level

Query string: Sort O=C1CCC(N2Cc3cc(CNC4CCC5(CCOCC5)CC4)ccc3C2=O)C(=O)N1 (stereo not shown) into one of the categories.
Result string: middle level

* * *

# system.tested: IKZF2 (Homo sapiens, UniProt Q96SW2+Q9UKS7)
# Construct: expressed in transfected cells
# experimental.protocol: HiBiT protein tagging assay, in vitro IKZF2 degradation (HEK293)
# Format: cell-based
# condition.set: HEK293, HiBiT assay, HEK293, 18-24 hr incubation, normalized to DMSO control; read-out: IKZF2 Dmax (maximum degradation at the highest concentration tested)
endpoint.name: Dmax (%)
Give a bare numeral; the unit % is implied.

C[C@H](CO)NCc1ccc2c(c1)CN(C1CCC(=O)NC1=O)C2=O (some centres unmarked) [Example 51]; 17

Form field Dmax, entry O=C1CCC(N2Cc3cc(CN[C@@H]4CC5CCC4CC5)ccc3C2=O)C(=O)N1 (some centres unmarked) [Example 94] : 55

Lab book: Dmax of O=C1CCC(N2Cc3cc(CN[C@H]4CCC[C@@H](Nc5ccccc5)C4)ccc3C2=O)C(=O)N1 (some centres unmarked) [Example 91] noted as 73

* * *

# system.tested: IKZF1 (Homo sapiens, UniProt Q13422+Q96SW2)
# Construct: expressed in transfected cells
# experimental.protocol: HiBiT protein tagging assay, in vitro IKZF1 degradation (HEK293)
# Format: cell-based
# condition.set: HEK293, 18-24 hr incubation, normalized to DMSO control, read-out: IKZF1 EC50
Examples of compounds with documented DC50 follow.
Only the number, expressed in µM, is required.

O=C1CCC(N2Cc3cc(CN[C@H]4CC[C@@](O)(c5ccccc5)CC4)ccc3C2=O)C(=O)N1 (some centres unmarked) [Example 66]; 0.102
C[C@]1(NCc2ccc3c(c2)CN(C2CCC(=O)NC2=O)C3=O)CCCN(Cc2ccccc2)C1 (some centres unmarked) [Example 155]; 0.122
O=C1CCC(N2Cc3cc(CN[C@@H]4CCCC[C@@H]4Cc4ccccc4)ccc3C2=O)C(=O)N1 (some centres unmarked) [Example 68]; 0.07
CC1(c2ccccc2)CCC(NCc2ccc3c(c2)CN(C2CCC(=O)NC2=O)C3=O)CC1 (centres unmarked) [Example 103]; 0.003
C[C@H]1CCCC[C@@H]1NCc1ccc2c(c1)CN(C1CCC(=O)NC1=O)C2=O (some centres unmarked) [Example 102]; 0.164
O=C1CCC(N2Cc3cc(CNC4CCC(F)(F)CC4)ccc3C2=O)C(=O)N1 (centres unmarked) [Example 7]; 0.053

Proceed to the following item.
Value sought: DC50, system IKZF1 (Homo sapiens, UniProt Q13422+Q96SW2), item O=C1CCC(N2Cc3cc(CNC4CCCCC4)ccc3C2=O)C(=O)N1 (centres unmarked) [Example 5] . Result: 0.123
